# Organism: Rattus norvegicus
# test: Open TG-GATES - Regimen: Single
# Type: toxicity, organism-based, Sprague-Dawley
# Parameters: regimen Single, gender Male, age 6 weeks
# conditionParameters: in vivo, po, 300 mg/kg, 24 h, tissue Blood, route gavage, dose level Middle
recordedEndpoint: MCH (pg)

[
  {
    "smilesRecord": "CN/C(=N/CCSCc1nc[nH]c1C)NC#N",
    "resultNumber": 21.5
  },
  {
    "smilesRecord": "O=C(OC[C@H]1O[C@@H](OC(=O)c2cc(O)c(O)c(OC(=O)c3cc(O)c(O)c(O)c3)c2)[C@H](OC(=O)c2cc(O)c(O)c(OC(=O)c3cc(O)c(O)c(O)c3)c2)[C@@H](OC(=O)c2cc(O)c(O)c(OC(=O)c3cc(O)c(O)c(O)c3)c2)[C@@H]1OC(=O)c1cc(O)c(O)c(OC(=O)c2cc(O)c(O)c(O)c2)c1)c1cc(O)c(O)c(OC(=O)c2cc(O)c(O)c(O)c2)c1",
    "resultNumber": 22
  },
  {
    "smilesRecord": "Cc1nnc2n1-c1ccc(Cl)cc1C(c1ccccc1Cl)=NC2",
    "resultNumber": 21
  },
  {
    "smilesRecord": "CNC(=C[N+](=O)[O-])NCCSCc1ccc(CN(C)C)o1",
    "resultNumber": 22.5
  },
  {
    "smilesRecord": "COC(=O)C1=C(C)NC(C)=C(C(=O)OC)C1c1ccccc1[N+](=O)[O-]",
    "resultNumber": 20.4
  }
]

###

# Lookup of reported DBIL keyed by entry
# Species: Rattus norvegicus
# test: Open TG-GATES - Regimen: Single
# Format: toxicity, organism-based, Sprague-Dawley
# Design: regimen Single, gender Male, age 6 weeks
# conditionParameters: in vivo, po, 0 mg/kg, 6 h, tissue Plasma, route gavage, dose level Control
recordedEndpoint: DBIL (mg/dL)

[
  {
    "molecule": "COC(=O)C1=C(C)NC(C)=C(C(=O)OC)C1c1ccccc1[N+](=O)[O-] [NIFEDIPINE]",
    "recordedEndpoint": "DBIL",
    "resultUnits": "mg/dL",
    "resultNumber": 0.008
  },
  {
    "molecule": "NC1=NC(=O)C(c2ccccc2)O1 (configuration not stated) [PEMOLINE]",
    "recordedEndpoint": "DBIL",
    "resultUnits": "mg/dL",
    "resultNumber": 0.01
  },
  {
    "molecule": "CN(C)CCC(c1ccc(Cl)cc1)c1ccccn1 (configuration not stated) [CHLORPHENIRAMINE]",
    "recordedEndpoint": "DBIL",
    "resultUnits": "mg/dL",
    "resultNumber": 0.008
  },
  {
    "molecule": "CC(C)NNC(=O)c1ccncc1 [IPRONIAZID]",
    "recordedEndpoint": "DBIL",
    "resultUnits": "mg/dL",
    "resultNumber": 0.006
  },
  {
    "molecule": "CS(=O)(=O)O.Cc1ccc(NC(=O)c2ccc(CN3CCN(C)CC3)cc2)cc1Nc1nccc(-c2cccnc2)n1 [IMATINIB MESYLATE]",
    "recordedEndpoint": "DBIL",
    "resultUnits": "mg/dL",
    "resultNumber": 0.006
  },
  {
    "molecule": "CCOc1ccc(NC(C)=O)cc1 [PHENACETIN]",
    "recordedEndpoint": "DBIL",
    "resultUnits": "mg/dL",
    "resultNumber": 0
  },
  {
    "molecule": "O=C(OC[C@H]1O[C@@H](OC(=O)c2cc(O)c(O)c(OC(=O)c3cc(O)c(O)c(O)c3)c2)[C@H](OC(=O)c2cc(O)c(O)c(OC(=O)c3cc(O)c(O)c(O)c3)c2)[C@@H](OC(=O)c2cc(O)c(O)c(OC(=O)c3cc(O)c(O)c(O)c3)c2)[C@@H]1OC(=O)c1cc(O)c(O)c(OC(=O)c2cc(O)c(O)c(O)c2)c1)c1cc(O)c(O)c(OC(=O)c2cc(O)c(O)c(O)c2)c1 [TANNIC ACID]",
    "recordedEndpoint": "DBIL",
    "resultUnits": "mg/dL",
    "resultNumber": 0.028
  }
]

###

# Species: Rattus norvegicus
# test: Open TG-GATES - Regimen: Single
# Format: toxicity, organism-based, Sprague-Dawley
# Parameters: regimen Single, gender Male, age 6 weeks
# conditionParameters: in vivo, po, 1000 mg/kg, 24 h, tissue Blood, route gavage, dose level High
recordedEndpoint: Fbg

[
  {
    "smilesRecord": "CN/C(=N/CCSCc1nc[nH]c1C)NC#N",
    "result": "212.4 mg/dL"
  },
  {
    "smilesRecord": "Cc1nnc2n1-c1ccc(Cl)cc1C(c1ccccc1Cl)=NC2",
    "result": "290.2 mg/dL"
  },
  {
    "smilesRecord": "CNC(=C[N+](=O)[O-])NCCSCc1ccc(CN(C)C)o1",
    "result": "235 mg/dL"
  },
  {
    "smilesRecord": "O=C(OC[C@H]1O[C@@H](OC(=O)c2cc(O)c(O)c(OC(=O)c3cc(O)c(O)c(O)c3)c2)[C@H](OC(=O)c2cc(O)c(O)c(OC(=O)c3cc(O)c(O)c(O)c3)c2)[C@@H](OC(=O)c2cc(O)c(O)c(OC(=O)c3cc(O)c(O)c(O)c3)c2)[C@@H]1OC(=O)c1cc(O)c(O)c(OC(=O)c2cc(O)c(O)c(O)c2)c1)c1cc(O)c(O)c(OC(=O)c2cc(O)c(O)c(O)c2)c1",
    "result": "221.4 mg/dL"
  },
  {
    "smilesRecord": "COC(=O)C1=C(C)NC(C)=C(C(=O)OC)C1c1ccccc1[N+](=O)[O-]",
    "result": "374 mg/dL"
  }
]

###

# Species: Rattus norvegicus
# test: Open TG-GATES - Regimen: Single
# Format: toxicity, organism-based, Sprague-Dawley
# Design: regimen Single, gender Male, age 6 weeks
# conditionParameters: in vivo, po, 100 mg/kg, 24 h, tissue Plasma, route gavage, dose level Low
Entries and their DBIL
recordedEndpoint: DBIL (mg/dL)

[
  {
    "smilesRecord": "CNC(=C[N+](=O)[O-])NCCSCc1ccc(CN(C)C)o1",
    "resultNumber": 0.086
  },
  {
    "smilesRecord": "Cc1nnc2n1-c1ccc(Cl)cc1C(c1ccccc1Cl)=NC2",
    "resultNumber": 0.01
  },
  {
    "smilesRecord": "CN/C(=N/CCSCc1nc[nH]c1C)NC#N",
    "resultNumber": 0.1
  },
  {
    "smilesRecord": "COC(=O)C1=C(C)NC(C)=C(C(=O)OC)C1c1ccccc1[N+](=O)[O-]",
    "resultNumber": 0.016
  },
  {
    "smilesRecord": "O=C(OC[C@H]1O[C@@H](OC(=O)c2cc(O)c(O)c(OC(=O)c3cc(O)c(O)c(O)c3)c2)[C@H](OC(=O)c2cc(O)c(O)c(OC(=O)c3cc(O)c(O)c(O)c3)c2)[C@@H](OC(=O)c2cc(O)c(O)c(OC(=O)c3cc(O)c(O)c(O)c3)c2)[C@@H]1OC(=O)c1cc(O)c(O)c(OC(=O)c2cc(O)c(O)c(O)c2)c1)c1cc(O)c(O)c(OC(=O)c2cc(O)c(O)c(O)c2)c1",
    "resultNumber": 0.008
  }
]

###

# Organism: Rattus norvegicus
# test: Open TG-GATES - Regimen: Daily Repeat
# Assay type: toxicity, organism-based, Sprague-Dawley
# Parameters: regimen Daily Repeat, gender Male, age 6 weeks
# conditionParameters: in vivo, po, 0 mg/kg, 72 h, tissue Blood, route gavage, dose level Control, time 3 day
Fbg by entry:

[
  {
    "compound": "CC(C)NNC(=O)c1ccncc1",
    "resultUnits": "mg/dL",
    "Fbg": 301.6
  },
  {
    "compound": "COC(=O)C1=C(C)NC(C)=C(C(=O)OC)C1c1ccccc1[N+](=O)[O-]",
    "resultUnits": "mg/dL",
    "Fbg": 313.6
  },
  {
    "compound": "CCCc1cc(=O)[nH]c(=S)[nH]1",
    "resultUnits": "mg/dL",
    "Fbg": 235
  },
  {
    "compound": "Cc1nnc2n1-c1ccc(Cl)cc1C(c1ccccc1Cl)=NC2",
    "resultUnits": "mg/dL",
    "Fbg": 272.8
  },
  {
    "compound": "O=C(OC[C@H]1O[C@@H](OC(=O)c2cc(O)c(O)c(OC(=O)c3cc(O)c(O)c(O)c3)c2)[C@H](OC(=O)c2cc(O)c(O)c(OC(=O)c3cc(O)c(O)c(O)c3)c2)[C@@H](OC(=O)c2cc(O)c(O)c(OC(=O)c3cc(O)c(O)c(O)c3)c2)[C@@H]1OC(=O)c1cc(O)c(O)c(OC(=O)c2cc(O)c(O)c(O)c2)c1)c1cc(O)c(O)c(OC(=O)c2cc(O)c(O)c(O)c2)c1",
    "resultUnits": "mg/dL",
    "Fbg": 245.4
  },
  {
    "compound": "CN(C)CCC(c1ccc(Cl)cc1)c1ccccn1 (stereo not drawn)",
    "resultUnits": "mg/dL",
    "Fbg": 295.2
  },
  {
    "compound": "Brc1ccccc1",
    "resultUnits": "mg/dL",
    "Fbg": 264.4
  },
  {
    "compound": "Nc1c2c(nc3ccccc13)CCCC2",
    "resultUnits": "mg/dL",
    "Fbg": 304
  },
  {
    "compound": "CCOc1ccc(NC(C)=O)cc1",
    "resultUnits": "mg/dL",
    "Fbg": 299.2
  },
  {
    "compound": "NC1=NC(=O)C(c2ccccc2)O1 (stereo not drawn)",
    "resultUnits": "mg/dL",
    "Fbg": 282.2
  },
  {
    "compound": "CNC(=C[N+](=O)[O-])NCCSCc1ccc(CN(C)C)o1",
    "resultUnits": "mg/dL",
    "Fbg": 243.4
  },
  {
    "compound": "CN/C(=N/CCSCc1nc[nH]c1C)NC#N",
    "resultUnits": "mg/dL",
    "Fbg": 220.2
  },
  {
    "compound": "CN1C(=O)CCS(=O)(=O)C1c1ccc(Cl)cc1 (stereo not drawn)",
    "resultUnits": "mg/dL",
    "Fbg": 283.6
  }
]

The reported measurements were obtained from ChEMBL document CHEMBL3885861.
